Tested on: MDA-N
testSummary: NCI tumour cell line growth inhibition, 48 h
measuredParameter: TGI

                                   molecule     value
0  CC(=O)NNc1nc(C)c(C(=O)NNC(=O)C(=O)Nc2nc3ccc([N+](=O)[O-])cc3s2)s1  > 100 µM
1  CCOC(=O)c1c(-c2ccc(OC)cc2)c(C#N)c(=S)n(C2OC(COC(C)=O)C(OC(C)=O)C(OC(C)=O)C2OC(C)=O)c1C (centres undefined)  > 100 µM
2           O=c1c2ccccc2nc2[nH][nH]c(=S)n12  > 100 µM
3        Cc1ccc2c(c1)Sc1ccc(N=NN(C)C)cc1N2C  > 100 µM
4  COc1cc(C2SCC(=O)N2c2ccc(NC(=O)c3ccc(N4C(=O)CSC4c4cc(OC)c(OC)c(OC)c4)cc3)cc2)cc(OC)c1OC (centres undefined)     64 µM
5  O=c1cc(N=P(c2ccccc2)(c2ccccc2)c2ccccc2)n(-c2ccccc2)c(=O)n1-c1ccccc1   43.7 µM
6  COc1ccc(C2(CC(C)O)SCCCS2)cc1 (centres undefined)  > 100 µM
7  C1=CC2=CC=CC3c4nc5ccc6ccccc6c5nc4C(=C1)C23 (centres undefined)  > 100 µM
8  CC(=O)N/N=C1\NC(=O)C[C@H]2[C@@H]3CC=C4C[C@@H](OC(C)=O)CC[C@]4(C)[C@H]3CC[C@]12C  > 100 µM

Origin of measurements: PubChem BioAssay (NCI)
